# Protocol: inhibitors of intracellular T. cruzi growth, primary screen, luminescence, NIH3T3 host cells (AID 1885);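 also: signal also drops with host cell toxicity which is not excluded here; 0% = plate median of DMSO wells and 100% = zero luminescence signal; higher percent means less beta-gal luminescence so fewer parasites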
# Details: T. cruzi beta-gal in NIH3T3, luminescence, 90 h; concentration not given here
Out of some 300,000 compounds screened, about 4,400 (1.5%) were called active.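 The calls were made as follows: active = mean inhibition across valid replicates above about 55% (limit read from the data); inconclusive = mean below that limit but half or more replicates reach it; inactive = mean below it, under half of replicates reach it.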 Many of the other results were omitted from the sample, so actives are more common in it than they were.
Outcomes you can answer with include only these: YES for active, NO for inactive

Worked cases, answers included:
>  <Compound>
CC(C)c1nc(N2CCOCC2)c(C#N)c2c1COC(C)(C)C2

>  <Class Label>
NO

$$$$
>  <Compound>
CC1=C/C(=N\OS(=O)(=O)c2ccccc2)C=CC1=O

>  <Class Label>
YES

$$$$
>  <Compound>
COc1cccc(C(=O)NCCS(=O)(=O)NCC2CCCO2)c1 (configuration not stated)

>  <Class Label>
NO

$$$$

In: Test call, this compound: O=C(NCc1cccnc1)c1cc(S(=O)(=O)N2CCOCC2)c(Cl)cc1Cl
Out: NO

In: Test call, this compound: CCC(C)(C)n1nnnc1C(c1cccs1)N1CCN(Cc2ccccc2)CC1 (configuration not stated)
Out: NO

In: Test call, this compound: CCCCn1c(N)c(N(CCOC)C(=O)c2cccc(S(=O)(=O)N(C)c3ccccc3)c2)c(=O)[nH]c1=O
Out: NO

In: Test call, this compound: Cc1csc(NC(=O)c2ccc(C)s2)n1
Out: NO

* * *

Here, each record is paired with measured inhibition data.
# Protocol: inhibitors of intracellular T. cruzi growth, primary screen, luminescence, NIH3T3 host cells (AID 1885);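 also: signal also drops with host cell toxicity which is not excluded here; 0% = plate median of DMSO wells and 100% = zero luminescence signal; higher percent means less beta-gal luminescence so fewer parasites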
# Details: T. cruzi beta-gal in NIH3T3, luminescence, 90 h; active compounds read high; concentration not given here
In all, about 300,000 compounds went through this assay and about 4,400 (1.5%) were called active. The sample as a whole holds a higher share of actives than the screen did.
Quick note: give the figure in %, leave out the unit.

Reference set (8 entries):
>  <Molecule>
CN(CCOc1ccccc1)C(=O)c1cc(COc2c(F)cccc2F)on1

>  <Data Value>
-2.25

$$$$
>  <Molecule>
COc1ccc(C2c3[nH]c4ccccc4c3C[C@H]3C(=O)N(CC(C)C)CC(=O)N23)c(OC)c1 (stereo not given in full)

>  <Data Value>
9.19

$$$$
>  <Molecule>
COc1ccccc1OCC(O)CN1CCOCC1 (stereo not given)

>  <Data Value>
1.66

$$$$
>  <Molecule>
CN(C)CCN(C(=O)C1=COCCO1)c1nc2ccc(Cl)cc2s1

>  <Data Value>
41.8

$$$$
>  <Molecule>
COc1cccc(-c2nc(CS(=O)(=O)CC(=O)NCCc3ccc(OC)c(OC)c3)c(C)o2)c1

>  <Data Value>
21.5

$$$$
>  <Molecule>
Cc1ccc(C)c(NC(=S)NNC(=O)c2csc(C)c2)c1

>  <Data Value>
6.88

$$$$
>  <Molecule>
CCN(CC)CCN(C(=O)c1cc(Cl)sc1Cl)c1nc2cc3c(cc2s1)OCO3

>  <Data Value>
33.9

$$$$
>  <Molecule>
O=C(CCc1ccccc1)Nc1ncc([N+](=O)[O-])s1

>  <Data Value>
86.1

$$$$

In: // inhibition lookup, key: Cc1nc(Nc2ccc3c(c2)OCCO3)c2nnn(Cc3ccccc3Cl)c2n1
Out: 54.7

In: // inhibition lookup, key: CCN(CC(=O)Nc1cc(Cl)ccc1C)C(=O)CSCc1ccc(C)cc1
Out: 7.73

In: // inhibition lookup, key: COC(=O)c1[nH]c2cccc(C)c2c1NC(=O)CN1CCCc2ccccc21
Out: 4.45

In: // inhibition lookup, key: O=C(N/N=C/c1ccc([N+](=O)[O-])o1)c1cn(-c2ccccc2)nc1-c1ccc(F)cc1
Out: 69.4

In: // inhibition lookup, key: Cc1ccc(C(=O)NC2CCCC(C)C2C)cc1S(=O)(=O)N1CCCCC1 (stereo not given)
Out: 19.9
